- EXPERIMENT: chemical genetic growth profiling, strain panel (AID 1159580);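 also: tested at 20 µM; growth read once vehicle control cultures reached saturation at 30 °C; 1 = growth at the plate median or of vehicle wells; lower values mean less growth of the strain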
- CONDITION SUMMARY: S. cerevisiae deletion strains, growth OD, locus YGL253W, strain hxk2
Hit rate of the full screen: of about 5,500 compounds, about 2,000 (36%) were called active. Roughly 18% stayed inconclusive and do not appear here. Rule as the data show it: active = normalized growth mostly below about 0.91 (no sharp cut-off); inconclusive = no clear call, values can overlap the other calls; inactive = mostly above about 0.92. The list shows a part of the results.
Form entry, call: pick from 1.0 (active), 0.0 (inactive)

Previously resolved entries follow.
COc1cc2c(cc1OC)C1(O)C(=O)c3ccc(O)c(C(=O)O)c3OC1CO2 (configuration not stated)
0.0
COc1ccc2c(c1)OCC(Cc1ccc(OC)c(O)c1)C2=O (configuration not stated)
1.0
COc1ccc(CCC(=O)c2c(O)cc(O[C@@H]3O[C@H](CO)C(O)[C@H](O)C3O[C@@H]3O[C@@H](C)[C@H](O)[C@@H](O)[C@H]3O)cc2O)cc1O (some centres not stated)
0.0
COc1ccc2c(c1)OCC(Cc1ccc(OC)c(OC(C)=O)c1)C2=O (configuration not stated)
0.0
C[C@]12CCC3c4ccc(OC(=O)c5ccccc5)cc4CCC3C1CCC2=O (some centres not stated)
0.0

Problem: Fill in: this test's call for Cc1oncc1C(=O)Nc1ccc(C(F)(F)F)cc1 is ___
Solution: 0.0

Problem: Fill in: this test's call for NC(=O)NC1NC(=O)NC1=O (configuration not stated) is ___
Solution: 0.0

---

- EXPERIMENT: chemical genetic growth profiling, strain panel (AID 1159580)
- CONDITION SUMMARY: S. cerevisiae deletion strains, growth OD, locus YPL256C, strain CLN2
About 2,000 (36%) of roughly 5,500 compounds were called active. About 18% were inconclusive and are not listed. Cut-off read from the data, not from the text of the source: active = normalized growth mostly below about 0.91 (no sharp cut-off); inconclusive = no clear call, values can overlap the other calls; inactive = mostly above about 0.92. Some of the results follow.
Form entry, call: pick from active, inactive

Clc1ccc(COC(Cn2ccnc2)c2ccc(Cl)cc2Cl)c(Cl)c1 (stereo unspecified)
active
O=C(Nc1ccncc1)c1cc(-c2ccccc2)oc1C(F)(F)F
inactive
Cc1ccc(C(=O)c2ccc(CC(=O)O)n2C)cc1
inactive
CN(C)CCC(c1ccccc1)c1ccccn1 (stereo unspecified)
inactive
CC1(C)N([O-])[N+](=O)C1(C)Br (stereo unspecified)
inactive
CC1[C@H](C)OC(=O)CC(O)CC(O)CC(O)CCC(O)C(O)C[C@]2(O)CC(O)C(C(=O)O)C(CC(OC3O[C@H](C)[C@@H](O)[C@H](N)[C@@H]3O)/C=C/C=C/C=C/C=C/CC/C=C/C=C/[C@H](C)[C@H]1O)O2 (stereo partly specified)
active

We next turn to a different molecule, shown below.
Problem: Fill in: this test's call for O=C(Oc1ccc2ccccc2c1C1SCCS1)c1ccc([N+](=O)[O-])o1 is ___
Solution: active

---

- EXPERIMENT: chemical genetic growth profiling, strain panel (AID 1159580);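 also: tested at 20 µM; growth read once vehicle control cultures reached saturation at 30 °C; 1 = growth at the plate median or of vehicle wells; lower values mean less growth of the strain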
- CONDITION SUMMARY: S. cerevisiae deletion strains, growth OD, locus YOR061W, strain CKA2, hits give low values
Hit rate of the full screen: of about 5,500 compounds, about 2,000 (36%) were called active. Inconclusive results (about 18%) are left out. Some of the results follow.
ASSAY READOUT: normalized growth
The answer should be written as a number, with no unit following it.

NCCCCC(=O)O
1.02
CC(=O)Oc1ccc2c(c1)CCC1C2CC[C@]2(C)C(=O)CCC12 (stereo partly drawn)
1
C=C[C@@]1(C)CC(=O)[C@@]2(O)[C@](C)(O1)[C@@H](OC(C)=O)[C@@H](O)C1C(C)(C)CC[C@H](O)[C@@]12C (stereo partly drawn)
0.972
Cc1nnc(NS(=O)(=O)c2ccc(N)cc2)s1
1.01
CN(C)CCC(c1ccccc1)c1ccccn1 (stereo not drawn)
1
CC(=O)N[C@@H](CCC(=O)O)C(=O)O
1.01
Oc1c(Cl)cc(Cl)c(Cl)c1Cc1c(O)c(Cl)cc(Cl)c1Cl
0.0448
CC(=O)O[C@@H]1CC2C(C)(C)[C@H](O)CC[C@]2(C)C2CC[C@@]3(C)[C@H](c4ccoc4)OC(=O)C4OC43[C@@]21C (stereo partly drawn)
0.94
NC(N)=NCCCCN=C(N)N
0.955
Cn1nccc1-c1cc(Cl)cc(Cl)c1O
0.744

Problem: # normalized growth lookup, item Cc1cc(/C=C/c2ccc3cc(N(C)C)ccc3[n+]2C)c(C)n1-c1ccccc1
Solution: 0.909

Problem: # normalized growth lookup, item Cc1onc(-c2ccccc2)c1-c1ccc(S(N)(=O)=O)cc1
Solution: 0.998

Problem: # normalized growth lookup, item Cc1ccccc1/C=C/c1c[nH]c2ccccc12
Solution: 0.895

Problem: # normalized growth lookup, item O=C(O)CCCCCCCC(=O)O
Solution: 0.973

Problem: # normalized growth lookup, item C[C@]12CCC3c4ccc(O)cc4CCC3C1CCC2=O (stereo partly drawn)
Solution: 0.969

Problem: # normalized growth lookup, item NCCCC(=O)O
Solution: 1.01

Problem: # normalized growth lookup, item CC(=O)C1CCC2C3CCC4C[C@H](O)CCC4(C)C3C[C@H](O)C12C (stereo partly drawn)
Solution: 1.03

Problem: # normalized growth lookup, item CCN1C[C@@]2(COC)C3[C@@H](OC)[C@H]4[C@@H]1[C@]3(C(OC)C[C@H]2O)C1C[C@@]2(O)[C@H](OC(=O)c3ccccc3)C1[C@]4(OC(C)=O)[C@@H](O)[C@@H]2OC (stereo partly drawn)
Solution: 1.02

Problem: # normalized growth lookup, item COc1ccc(-c2cc(=O)c3c(OC)cc(OC)cc3o2)cc1
Solution: 0.999

Problem: # normalized growth lookup, item C[C@]12CCC3C(CC[C@H]4C[C@H](O)CC[C@]34C)C1CC[C@@H]2O (stereo partly drawn)
Solution: 0.985

Problem: # normalized growth lookup, item CC(=O)O[C@@H]1CC2C(C)(C)[C@@H](O)CC[C@]2(C)C2CC[C@@]3(C)[C@H](c4ccoc4)OC(=O)[C@H]4O[C@]43[C@@]21C (stereo partly drawn)
Solution: 0.985

Problem: # normalized growth lookup, item CC12CCC3C(=CCc4cc(O)ccc43)C1CCC2=O (stereo not drawn)
Solution: 0.971

Problem: # normalized growth lookup, item Clc1ccc(COC(Cn2ccnc2)c2ccc(Cl)cc2Cl)cc1 (stereo not drawn)
Solution: 0.0453

---

- EXPERIMENT: chemical genetic growth profiling, strain panel (AID 1159580);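 also: tested at 20 µM; growth read once vehicle control cultures reached saturation at 30 °C; 1 = growth at the plate median or of vehicle wells; lower values mean less growth of the strain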
- CONDITION SUMMARY: S. cerevisiae deletion strains, growth OD, locus YNL248C, strain rpa49
Among all 5,500 compounds or so, about 2,000 (36%) were called active. Roughly 18% stayed inconclusive and do not appear here. Cut-off read from the data, not from the text of the source: active = normalized growth mostly below about 0.91 (no sharp cut-off); inconclusive = no clear call, values can overlap the other calls; inactive = mostly above about 0.92. The list shows a part of the results.
Form entry, call: pick from y = active, n = inactive

Previously resolved entries follow.
CC1[C@H](C)OC(=O)CC(O)CC(O)CC(O)CCC(O)C(O)C[C@]2(O)CC(O)C(C(=O)O)C(CC(OC3O[C@H](C)[C@@H](O)[C@H](N)[C@@H]3O)/C=C/C=C/C=C/C=C/CC/C=C/C=C/[C@H](C)[C@H]1O)O2 (some centres not stated)
y
CC(C)/C(O)=C1/C(=O)O[C@@H](c2ccoc2)[C@]2(C)C(O)[C@@H](O)[C@@]34OC5(C)OC67CC(C)(C(O)[C@]6(O)[C@@H](O)[C@]3(O5)C12)[C@H](CC(=O)O)[C@]74C (some centres not stated)
n
CCCCCCCCCCCCCC(=O)OC1C(C)C2(O)C(C=C(CO)CC3(O)C(=O)C(C)=CC32)C2C(C)(C)C12OC(C)=O (configuration not stated)
n
CN1CCC[C@@H]1CCO[C@](C)(c1ccccc1)c1ccc(Cl)cc1
y
NC(=O)NC1NC(=O)NC1=O (configuration not stated)
n
FC(F)(F)c1cccc(N2CCNCC2)c1
n
C[C@@H]1CC2C3CCC4=CC(=O)C=C[C@]4(C)[C@@]3(F)[C@@H](O)C[C@]2(C)[C@@]1(O)C(=O)CO (some centres not stated)
n
O=C(O)[C@@H](S)[C@@H](S)C(=O)O
n

Problem: Fill in: this test's call for O=C(O)COc1ccc(Cl)cc1Cl is ___
Solution: n

Problem: Fill in: this test's call for NC1(C(=O)O)CC1 is ___
Solution: n

---

- EXPERIMENT: chemical genetic growth profiling, strain panel (AID 1159580);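 also: tested at 20 µM; growth read once vehicle control cultures reached saturation at 30 °C; 1 = growth at the plate median or of vehicle wells; lower values mean less growth of the strain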
- CONDITION SUMMARY: S. cerevisiae deletion strains, growth OD, locus YMR129W
About 2,000 (36%) of roughly 5,500 compounds were called active. Roughly 18% stayed inconclusive and do not appear here. No stated cut-off is given here; in the data, active means normalized growth mostly below about 0.91 (no sharp cut-off); inconclusive means no clear call, values can overlap the other calls; inactive means mostly above about 0.92. This is one part of the list.
Form entry, call: pick from active, inactive

CC1OC(O[C@H]2/C=C/C=C/C=C/C=C/C=C/C=C/C=C/[C@H](C)[C@@H](O)[C@@H](C)[C@H](C)OC(=O)CC(O)CC(O)CCC(O)C(O)CC(O)C[C@]3(O)C[C@H](O)C(C(=O)O)C(C2)O3)C(O)[C@H](N)C1O (stereo partly specified)
active
COC(=O)[C@H](c1ccccc1Cl)N1CCc2sccc2C1
inactive
C[C@]12CCC3c4ccc(OC(=O)c5ccccc5)cc4CCC3C1CCC2=O (stereo partly specified)
inactive

Problem: Fill in: this test's call for CC1C/C=C/C=C/C=C/C=C/C(O[C@@H]2O[C@H](C)[C@@H](O)[C@H](N)[C@@H]2O)CC2OC(O)(CC(O)CC3OC3/C=C/C(=O)O1)CC(O)C2C(=O)O (stereo partly specified) is ___
Solution: inactive

Problem: Fill in: this test's call for CC(=O)O[C@H]1CC[C@@]2(C)C(C[C@@H](OC(C)=O)[C@]3(C)C2CC[C@@]2(C)[C@H](c4ccoc4)OC(=O)[C@H]4O[C@]423)C1(C)C (stereo partly specified) is ___
Solution: inactive

Problem: Fill in: this test's call for O=C1CCCN1CC#CCN1CCCC1 is ___
Solution: inactive

Problem: Fill in: this test's call for CC(=O)O[C@@H]1CC2C(C)(C)[C@H](O)CC[C@]2(C)C2CC[C@@]3(C)[C@H](c4ccoc4)OC(=O)C4OC43[C@@]21C (stereo partly specified) is ___
Solution: inactive

Problem: Fill in: this test's call for COc1ccc(-c2oc3cc(OC)c(OC)c(OC)c3c(=O)c2OC)cc1 is ___
Solution: inactive

Problem: Fill in: this test's call for CC(=O)O[C@H]1C[C@@H](OC(C)=O)C(C)(C)C2C[C@@H](O)[C@]3(C)C(CC[C@@]4(C)[C@H](c5ccoc5)OC(=O)[C@H]5O[C@]543)[C@]21C (stereo partly specified) is ___
Solution: inactive

Problem: Fill in: this test's call for COC[C@]12CN(C=O)C3[C@@H]4[C@H](OC)C1[C@]3(C1CC3(O)C(OC)C(O)C4(OC(C)=O)C1C3OC(=O)c1ccccc1)[C@@H](OC)C[C@H]2O (stereo partly specified) is ___
Solution: inactive

Problem: Fill in: this test's call for Clc1ccc(COC(Cn2ccnc2)c2ccc(Cl)cc2Cl)cc1 (stereo unspecified) is ___
Solution: active

Problem: Fill in: this test's call for Cc1onc(-c2ccccc2)c1-c1ccc(S(N)(=O)=O)cc1 is ___
Solution: inactive

Problem: Fill in: this test's call for Clc1ccc(C(c2ccccc2Cl)C(Cl)Cl)cc1 (stereo unspecified) is ___
Solution: inactive

Problem: Fill in: this test's call for CC12CCC3C(=CCc4cc(O)ccc43)C1CCC2=O (stereo unspecified) is ___
Solution: inactive

Problem: Fill in: this test's call for Clc1ccccc1CN1CCc2sccc2C1 is ___
Solution: inactive

Problem: Fill in: this test's call for C[C@@H]1CC2C3CCC4=CC(=O)C=C[C@]4(C)[C@@]3(F)[C@@H](O)C[C@]2(C)[C@@]1(O)C(=O)CO (stereo partly specified) is ___
Solution: inactive

Problem: Fill in: this test's call for C=NC(C(=O)NC1C(=O)N2C1SC(C)(C)C2C(=O)O)c1ccccc1 (stereo unspecified) is ___
Solution: inactive

Problem: Fill in: this test's call for NCCCCCC(=O)O is ___
Solution: inactive
